System: L1210
runDescription: Cytotoxicity against mouse L1210 cells after 4 hrs by MTT assay
Assay type: functional
Entries annotated with measured Activity
readoutType: Activity (µM)

INSERT INTO measurements (querysmiles, readouttype, readingunit, readoutnumber) VALUES
  ('CCN(CC)CCN1c2ccccc2Cn2c1nc1c(Nc3ccccc3)ncnc12.Cl', 'Activity', 'µM', 17.9),
  ('Nc1nc(Cl)nc2c1nc1n2Cc2ccccc2N1', 'Activity', 'µM', 23),
  ('Cl.Clc1ccccc1Nc1ncnc2c1nc1n2Cc2ccccc2N1CCN1CCOCC1', 'Activity', 'µM', 11.9),
  ('Brc1ccccc1Nc1ncnc2c1nc1n2Cc2ccccc2N1CCN1CCOCC1.Cl', 'Activity', 'µM', 21.9),
  ('Nc1ncnc2c1nc1n2Cc2ccccc2N1', 'Activity', 'µM', 7.3),
  ('Cl.c1ccc(CNc2ncnc3c2nc2n3Cc3ccccc3N2CCN2CCOCC2)cc1', 'Activity', 'µM', 31),
  ('Cl.c1ccc(Nc2ncnc3c2nc2n3Cc3ccccc3N2CCN2CCOCC2)cc1', 'Activity', 'µM', 16.1),
  ('c1ccc(Nc2ncnc3c2nc2n3Cc3ccccc3N2)cc1', 'Activity', 'µM', 34.3);

Numbers sourced from ChEMBL document CHEMBL1629470.
